Test Target: PRMT5-MEP50 enzyme complex (Homo sapiens (Human), UniProt O14744)
Sequence (O14744 2-637): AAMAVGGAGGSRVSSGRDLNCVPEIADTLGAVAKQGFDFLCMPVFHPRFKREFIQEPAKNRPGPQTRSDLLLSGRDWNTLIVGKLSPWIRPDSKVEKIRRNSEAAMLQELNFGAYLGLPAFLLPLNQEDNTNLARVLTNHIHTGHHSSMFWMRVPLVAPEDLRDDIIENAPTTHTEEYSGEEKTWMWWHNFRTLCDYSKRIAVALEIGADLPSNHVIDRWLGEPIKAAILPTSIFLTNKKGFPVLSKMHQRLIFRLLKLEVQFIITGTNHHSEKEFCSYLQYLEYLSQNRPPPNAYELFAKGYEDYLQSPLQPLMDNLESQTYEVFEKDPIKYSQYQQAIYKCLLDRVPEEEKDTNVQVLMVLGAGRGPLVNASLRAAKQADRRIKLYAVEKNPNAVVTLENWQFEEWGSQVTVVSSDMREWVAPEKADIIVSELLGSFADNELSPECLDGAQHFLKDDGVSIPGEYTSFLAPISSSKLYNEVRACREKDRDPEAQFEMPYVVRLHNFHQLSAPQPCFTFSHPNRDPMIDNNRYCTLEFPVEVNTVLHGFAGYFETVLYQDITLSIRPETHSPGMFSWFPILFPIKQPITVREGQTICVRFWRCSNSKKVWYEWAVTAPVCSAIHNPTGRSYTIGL
Sequence (Q9BQA1 2-342 partner): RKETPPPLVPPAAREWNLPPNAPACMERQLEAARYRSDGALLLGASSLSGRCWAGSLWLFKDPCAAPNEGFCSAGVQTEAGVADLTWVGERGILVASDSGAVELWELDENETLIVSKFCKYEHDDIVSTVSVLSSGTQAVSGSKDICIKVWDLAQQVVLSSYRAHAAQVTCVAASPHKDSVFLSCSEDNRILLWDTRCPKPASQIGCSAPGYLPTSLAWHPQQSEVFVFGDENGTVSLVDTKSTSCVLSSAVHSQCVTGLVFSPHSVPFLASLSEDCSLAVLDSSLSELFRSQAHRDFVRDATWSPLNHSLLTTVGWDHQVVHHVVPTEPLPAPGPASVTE
Measurement Protocol: PRMT5 enzyme activity in vitro assay (methylation of histone H4R3, ELISA absorbance at 450 nm)
Condition Context: SAM, histone H4 peptide, room temperature 2 hours, 8 points from 10 μM to 0.128 nM
pIC50: −log10 of the molar value.
Quantity Measured: pIC50

Consider the reported pIC50 for these molecules:
[
  {
    "Molecule": "CN1CCC(COc2ccc3c(c2)N(C)CCN(C[C@H](O)CN2CCc4ccccc4C2)C3=O)C1 (stereo partly drawn) [Example 131]",
    "pIC50": "6.00 to 7.00"
  },
  {
    "Molecule": "O=C(c1ccc2c(c1)OCCN(C[C@H](O)CN1CCc3ccccc3C1)C2=O)N1CCCC(F)C1 (stereo partly drawn) [Example 194]",
    "pIC50": "6.00 to 7.00"
  },
  {
    "Molecule": "CC1COCCN1C(=O)c1ccc2c(c1)OCCN(C[C@H](O)CN1CCc3ccccc3C1)C2=O (stereo partly drawn) [Example 191]",
    "pIC50": "6.00 to 7.00"
  }
]

Recorded pIC50 for O=C1c2ccc(CN3CCCC(F)C3)cc2OCCN1C[C@H](O)CN1CCc2ccccc2C1 (stereo partly drawn) [Example 43] , please?
7.00 to 9.00

Recorded pIC50 for CN1CCC(COc2ccc3c(c2)OCCN(C[C@H](O)CN2CCc4ccccc4C2)C3=O)C1 (stereo partly drawn) [Example 106] , please?
6.00 to 7.00

Recorded pIC50 for O=C1c2ccc(CN3CCCC(F)(F)C3)cc2OCCN1C[C@H](O)CN1CCc2ccccc2C1 [Example 42] , please?
6.00 to 7.00

* * *

Test Target: PRMT5-MEP50 enzyme complex (Homo sapiens (Human), UniProt O14744)
Measurement Protocol: PRMT5 enzyme activity in vitro assay (methylation of histone H4R3, ELISA absorbance at 450 nm)
Condition Context: SAM, histone H4 peptide, room temperature 2 hours, 8 points from 10 μM to 0.128 nM
Quantity Measured: IC50

Consider the reported IC50 for these molecules:
[
  {
    "Smiles Repr": "O=C1c2ccc(OC3CCN(C4CC4)CC3)cc2OCCN1C[C@H](O)CN1CCc2ccccc2C1",
    "IC50": "1 to 100 nM"
  },
  {
    "Smiles Repr": "COC(=O)N1CC(Oc2ccc3c(c2)OCCN(C[C@H](O)CN2CCc4ccccc4C2)C3=O)C1",
    "IC50": "100 to 1000 nM"
  }
]

Here is another molecule to look at.
Recorded IC50 for O=C1c2ccc(CN3CCn4cccc4C3)cc2OCCN1C[C@H](O)CN1CCc2ccccc2C1 , please?
100 to 1000 nM

* * *

Test Target: PRMT5-MEP50 enzyme complex (Homo sapiens (Human), UniProt O14744)
Measurement Protocol: PRMT5 enzyme activity in vitro assay (methylation of histone H4R3, ELISA absorbance at 450 nm)
Condition Context: SAM, histone H4 peptide, room temperature 2 hours, 8 points from 10 μM to 0.128 nM
Counter-ions that a name gives are not always drawn.
Reported values of IC50 for individual entries

[
  {
    "Compound": "CC(=O)N1CC(Oc2ccc3c(c2)OC(C)(C)CN(C[C@H](O)CN2CCc4ccccc4C2)C3=O)C1 [Example 114]",
    "Quantity Measured": "IC50",
    "Result": "1 to 100 nM"
  }
]

Recorded IC50 for CC(O)CN1CC[C@@H](Oc2ccc3c(c2)OCCN(C[C@H](O)CN2CCc4ccccc4C2)C3=O)[C@H](F)C1 (stereo partly drawn) [Example 254, hydrochloride] , please?
100 to 1000 nM

Recorded IC50 for COCCN1CC[C@@H](Oc2ccc3c(c2)O[C@H](C)CN(C[C@H](O)CN2CCc4ccccc4C2)C3=O)C1 [Example 274] , please?
100 to 1000 nM
